tested on: SEM cells; experiment: cell viability relative to DMSO control; higher = less cytotoxic; conditions: RPMI 5 mM glucose + 10% FBS; 48 h; 15.4 µM
Classes (cell viability): Low (below 60%), Mid (60% to below 90%), High (90% or more)

Solved cases below.
{"columns": ["compound", "class"],
 "data": [
  ["COc1cccc(N(C)C(=S)Oc2ccc3c(c2)CCCC3)n1", "High"],
  ["CN(C)CCc1c[nH]c2ccc(Cn3cncn3)cc12", "Low"],
  ["CC(C)C[C@H](CC(=O)O)C(=O)N[C@@H](Cc1c[nH]c2ccccc12)C(=O)N[C@@H](C)c1ccccc1", "Mid"],
  ["Cc1cnc(Nc2cccc(CN3CCOCC3)c2)nc1Nc1cccc([S+](=O)([O-])NC(C)(C)C)c1", "Mid"],
  ["CCN(CC)CCCC(C)Nc1ccnc2cc(Cl)ccc12 (stereo not given)", "High"],
  ["COc1ccc(-n2c(C)c([N+](=O)[O-])c3ccc(O)cc32)cc1", "High"]
]}

// return the class label for CCC(=O)N1CCN(CC1)C2=C(C=C(C=C2)N3C(=O)\C=C/C4=C3C5=CC(=CC=C5N=C4)C6=CN=C7C=CC=CC7=C6)C(F)(F)F
Low

// return the class label for CO[C@H]1C[C@@H]2CC[C@@H](C)[C@@](O)(O2)C(=O)C(=O)N2CCCC[C@H]2C(=O)O[C@H]([C@@H](C)C[C@@H]2CC[C@@H](O)[C@H](OC)C2)CC(=O)[C@H](C)/C=C(\C)[C@@H](O)[C@@H](OC)C(=O)[C@H](C)C[C@H](C)/C=C/C=C/C=C/1C
Mid

// return the class label for Cc1nnc(C(C)C)n1[C@@H]1C[C@H]2CC[C@@H](C1)N2CC[C@H](NC(=O)C1CCC(F)(F)CC1)c1ccccc1
Low

// return the class label for C[S+](=O)([O-])N1CCN(Cc2cc3nc(-c4cccc5[nH]ncc45)nc(N4CCOCC4)c3s2)CC1
Low

// return the class label for c1ccc2c(CN3CCNCC3)cccc2c1
High

// return the class label for CCC(=O)O[C@@]1(CC[C@H]2[C@@H]3CCC/4=C/C(=O)CC[C@]4(C)[C@H]3CC[C@]12C)C(=O)CO
Low

// return the class label for N#Cc1c(N(CC(=O)[O-])CC(=O)[O-])sc(C(=O)[O-])c1CC(=O)[O-].O.O.O.O.O.O.O.[Sr+2].[Sr+2]
High

// return the class label for NCCOc1cc(C(=O)Nc2cc(OCCN)c3ccccc3n2)nc(C(=O)Nc2cc(OCCN)c3ccccc3n2)c1
Low

// return the class label for O=C(Nc1nc2cccc(-c3ccc(CN4CC[S+](=O)([O-])CC4)cc3)n2n1)C1CC1
High
